Experimental system: recombinant human LAT1 (Homo sapiens, UniProt Q01650)
Construct: made in house; host or cells: E. coli
Sequence (Q01650 whole entry): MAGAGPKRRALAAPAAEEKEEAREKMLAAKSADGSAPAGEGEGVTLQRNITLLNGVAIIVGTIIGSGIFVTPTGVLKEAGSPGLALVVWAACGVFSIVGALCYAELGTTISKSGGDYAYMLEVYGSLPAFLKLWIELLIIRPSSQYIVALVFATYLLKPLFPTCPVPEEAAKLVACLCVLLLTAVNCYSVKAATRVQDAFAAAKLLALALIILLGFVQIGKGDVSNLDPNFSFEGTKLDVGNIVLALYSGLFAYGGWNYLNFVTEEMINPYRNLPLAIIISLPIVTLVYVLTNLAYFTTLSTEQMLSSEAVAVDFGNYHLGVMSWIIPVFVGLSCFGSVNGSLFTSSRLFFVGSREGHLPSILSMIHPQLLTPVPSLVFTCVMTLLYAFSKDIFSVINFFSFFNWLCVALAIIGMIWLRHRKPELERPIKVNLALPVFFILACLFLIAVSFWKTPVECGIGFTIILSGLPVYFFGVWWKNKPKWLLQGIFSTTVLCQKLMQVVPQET
Test name: Inhibition of LAT1 mediated [3H]-His transport in proteoliposomes reconstituted with recombinant purified human LAT1
Type: biochemical
Setup conditions: 100 µM concentration, n = 3, Table S6
Criterion: % Residual Activity meeting or surpassing 80%. Met: 1. Not met: 0.

> print(dat)
                                   molecule  group
1  CN(Cc1ccon1)C(C(=O)O)c1ccc(-n2cccn2)cc1 (stereo not shown)      1
2         N[C@@H](CCc1cc(Cl)cc(Cl)c1)C(=O)O      0
3  NC(Cc1cn(-c2ccccc2)nn1)C(=O)O (stereo not shown)      0
4  N[C@@H](Cc1c[nH]c2ccc(OCc3ccccc3)cc12)C(=O)O      0
5  COc1ccc(CSCC(N)C(=O)O)cc1Br (stereo not shown)      0
6            CN(Cc1cc(Br)cc(Br)c1N)C1CCCCC1      1
7   NC1(C(=O)O)CC2CCC1C2 (stereo not shown)      0
